The measured values listed here are drawn from the C3SDB collision cross section collection.

# test settings: [M+H]+; instrument: DT; single field, calibrated with ESI Low Concentration Tuning Mix (Agilent)
reported property: collision cross section (N2) (Å²)

Some solved cases for reference:
| compound | collision cross section (N2), Å² |
| --- | --- |
| CC(=O)OCC(=O)[C@@]1(O)CC[C@H]2[C@@H]3CCC4=CC(=O)CC[C@]4(C)[C@H]3[C@@H](O)C[C@@]21C [CORTISOL 21-ACETATE] | 198.8 |
| O=c1nc[nH]c2nc[nH]c12 | 127.2 |
| CC(C)C[C@H](N)C(=O)O | 134.8 |

I: Nc1ncnc2c1ncn2[C@H]1C[C@H](O)[C@@H](COP(=O)(O)O)O1 [DEOXYADENOSINE MONOPHOSPHATE]
II: CC(C)=CC(=O)SCCNC(=O)CCNC(=O)C(O)C(C)(C)COP(=O)(O)OP(=O)(O)OC[C@H]1O[C@@H](n2cnc3c(N)ncnc32)[C@H](O)[C@@H]1OP(=O)(O)O (stereo partly drawn)
IN: Which has the higher collision cross section (N2), I or II ? The response must carry the label of the picked entry.
OUT: II
(II: 256.1 Å², I: 168.5 Å²)

A: NC(=O)CC[C@H](N)C(=O)O
B: CCCCCCCCCCCCCCCC(=O)OC(CC(=O)[O-])C[N+](C)(C)C (stereo not drawn)
IN: Which has the higher collision cross section (N2), A or B ? The response must carry the label of the picked entry.
OUT: B

====

# test settings: [M+H]+; instrument: DT; stepped-field
reported property: collision cross section (N2) (Å²)

| mol | collision cross section (N2), Å² |
| --- | --- |
| CCCCC/C=C\C/C=C\CCCCCCCC(=O)O[C@H](COCCCCCCCCCCCCCCCC)COP(=O)([O-])OCC[N+](C)(C)C | 297.2 |
| CCCCC/C=C\C/C=C\CCCCCCCC(=O)O[C@H](COCCCCCCCCCCCCCCCCCC)COP(=O)([O-])OCC[N+](C)(C)C | 303.1 |
| CCCCCC/C=C\CCCCCCCCCC(=O)O[C@H](COC(=O)CCCCCCC/C=C\CCCCCCCC)COP(=O)([O-])OCC[N+](C)(C)C | 303.1 |
| CCCCCC/C=C/CCCCCCCC(=O)OC[C@@H](O)COP(=O)([O-])OCC[N+](C)(C)C | 227.7 |
| CCCCCC/C=C\CCCCCCCCCC(=O)O[C@H](COC(=O)CCCCCCCCCCCCCCC)COP(=O)(O)OCCN | 286.1 |

====

# test settings: [M+2Na-H]+; instrument: DT; stepped-field
reported property: collision cross section (N2) (Å²)

| mol | reported property | recorded measurement |
| --- | --- | --- |
| CCCCC/C=C\C/C=C\C/C=C\C/C=C\CCCC(=O)O[C@H](COCCCCCCCCCCCCCCCCCC)COP(=O)(O)OCCN | collision cross section (N2) | 284.68 |
| CCCCC/C=C\C/C=C\C/C=C\CCCCCCC(=O)O[C@H](COC(=O)CCCCCCC/C=C\C/C=C\CCCCC)COP(=O)(O)OC[C@H](N)C(=O)O | collision cross section (N2) | 285.68 |
| CCCCC/C=C\C/C=C\C/C=C\C/C=C\CCCCCC(=O)O[C@H](COC(=O)CCCCCCCCC/C=C\C/C=C\CCCCC)COP(=O)(O)OC[C@H](N)C(=O)O | collision cross section (N2) | 297.48 |
| CCCCC/C=C\C/C=C\CCCCCCCCCCCC(=O)O[C@H](COC(=O)CCCCCCCCCCCCCC)COP(=O)(O)OC[C@H](N)C(=O)O | collision cross section (N2) | 289.29 |
| CCCCCC/C=C\CCCCCCCC(=O)OC[C@H](COP(=O)(O)OCCN)OC(=O)CCCCCCCCC/C=C\CCCCCCCC | collision cross section (N2) | 281.26 |
| CCCCCCCCCC/C=C\CCCCCCCCCC(=O)O[C@H](COC(=O)CCCCCCCCCCCC)COP(=O)(O)O | collision cross section (N2) | 271.84 |
| CCCCC/C=C\C/C=C\C/C=C\CCCCC(=O)O[C@H](COCCCCCCCCCCCCCCCC)COP(=O)(O)OCCN | collision cross section (N2) | 271.58 |
| CC/C=C\C/C=C\C/C=C\C/C=C\CCCCC(=O)OC[C@H](COP(=O)(O)OCCN)OC(=O)CCCCCCCCC/C=C\C/C=C\CCCCC | collision cross section (N2) | 281 |

====

# test settings: [M+H]+; instrument: TW; Major Mix IMS/Tof Calibration Kit (Waters)
reported property: collision cross section (N2) (Å²)

| compound | reported property | recorded measurement |
| --- | --- | --- |
| COc1cc2c(cc1OC)C(=O)C(CC1CCN(Cc3ccccc3)CC1)C2 (configuration not stated) | collision cross section (N2) | 198.1 |
| COc1ccc(CCN(C)CCCC(C#N)(c2ccc(OC)c(OC)c2)C(C)C)cc1OC (configuration not stated) | collision cross section (N2) | 210.2 |
| CN(C)CC1CCCCC1(O)c1cccc(O)c1 (configuration not stated) | collision cross section (N2) | 157.4 |
| CN(C)CCOC(C)(c1ccccc1)c1ccccn1 (configuration not stated) | collision cross section (N2) | 161.9 |
| NC1CC1c1ccccc1 (configuration not stated) | collision cross section (N2) | 127.6 |
| CN(C)CCc1c[nH]c2ccc(Cn3cncn3)cc12 | collision cross section (N2) | 160.3 |
| CC(C)(O)c1ccccc1CC[C@@H](SCC1(CC(=O)O)CC1)c1cccc(/C=C/c2ccc3ccc(Cl)cc3n2)c1 | collision cross section (N2) | 243 |
| CCCc1nc(C)c2c(=O)nc(-c3cc(S(=O)(=O)N4CCN(CC)CC4)ccc3OCC)[nH]n12 | collision cross section (N2) | 225.8 |
| COc1cc2nc(N3CCN(C(=O)C4COc5ccccc5O4)CC3)nc(N)c2cc1OC (configuration not stated) | collision cross section (N2) | 202.9 |
| CN1[C@H]2CC[C@@H]1[C@@H](C(=O)O)[C@@H](OC(=O)c1ccccc1)C2 | collision cross section (N2) | 167.3 |
| CN(C)CCC(c1ccc(Cl)cc1)c1ccccn1 (configuration not stated) | collision cross section (N2) | 164.5 |
| O=S1c2ccccc2/C(=C\CCN2CCN(CCO)CC2)c2cc(C(F)(F)F)ccc21 (configuration not stated) [Flupentixol-M sulphoxide] | collision cross section (N2) | 196.8 |
| CN(Cc1cnc2nc(N)nc(N)c2n1)c1ccc(C(=O)N[C@@H](CCC(=O)O)C(=O)O)cc1 [Methotrexate] | collision cross section (N2) | 196.2 |
| COc1ccc2c3c1O[C@H]1[C@@H](O)C=C[C@H]4[C@@H](C2)NCC[C@@]341 | collision cross section (N2) | 166.1 |
| COc1ccc(C(CN(C)C)C2(O)CCCCC2)cc1 (configuration not stated) | collision cross section (N2) | 171.6 |
| O=C(O)C(c1ccccc1)C1CCCCN1 (configuration not stated) | collision cross section (N2) | 150 |
| CC/C(=C(\c1ccccc1)c1ccc(OCCN(C)C)cc1)c1ccccc1 | collision cross section (N2) | 197.1 |

====

# test settings: [M+H]+; instrument: TW; calibrated with polyalanine and drug standards
reported property: collision cross section (N2) (Å²)

| molecule | recorded measurement |
| --- | --- |
| CC1(C)O[C@@H]2C[C@H]3[C@@H]4C[C@H](F)C5=CC(=O)CC[C@]5(C)[C@H]4[C@@H](O)C[C@]3(C)[C@]2(C(=O)CO)O1 [FLURANDRENOLIDE] | 201.2 |
| COc1c2ccoc2c(OC)c2oc(=O)ccc12 [ISOPIMPINELLIN] | 146.5 |
| CC1(C)O[C@@H]2C[C@H]3[C@@H]4C[C@H](F)C5=CC(=O)C=C[C@]5(C)[C@@]4(F)[C@@H](O)C[C@]3(C)[C@]2(C(=O)CO)O1 [FLUOCINOLONE ACETONIDE] | 199.7 |

a: CC(C)NCC(O)COc1cccc2[nH]ccc12 (stereo not given) [PINDOLOL]
b: C=Cc1c(C)c2cc3[nH]c(cc4nc(cc5nc(cc1[nH]2)C(C)=C5CCC(=O)O)C(CCC(=O)O)=C4C)c(C)c3C=C [PROTOPORPHYRIN IX]
IN: Which has the higher collision cross section (N2), a or b ? The response must carry the label of the picked entry.
OUT: b

a: O=C(O)CCC(=O)Nc1ccc(S(=O)(=O)Nc2nccs2)cc1 [SUCCINYLSULFATHIAZOLE]
b: NNC(=O)c1ccncc1 [ISONIAZID]
IN: Which has the higher collision cross section (N2), a or b ? The response must carry the label of the picked entry.
OUT: a
(a: 182.4 Å², b: 125.6 Å²)
